FYI, the data here is from paper PMC12097015.

test: Pharmacokinetic study in BALB/c mice; type: in vivo; details: mouse, plasma, 1.0 mg kg^−1 (iv), read-out: MRT0–t
Measured quantity: MRT last (min)
Answers are plain numbers, in min.

Query: Any idea what its MRT last is? The compound is COc1ccc(C2=N[C@H](c3ccc(Cl)cc3)[C@H](c3ccc(Cl)cc3)N2C(=O)N2CCN(CC(=O)NCCCCCCCCOc3cccc4c3C(=O)N(C3CCC(=O)NC3=O)C4=O)C(=O)C2)c(OC(C)C)c1 (stereo in doubt)
Reply: 16.8

###

test: Pharmacokinetic study in BALB/c mice; type: in vivo; conditions: mouse, plasma, 10 mg kg^−1 (po)
Measured quantity: half-life (min)
Give bare numbers, in min.

Query: Any idea what its half-life is? The compound is COc1ccc(C2=N[C@H](c3ccc(Cl)cc3)[C@H](c3ccc(Cl)cc3)N2C(=O)N2CCN(CC(=O)NCCCCCCCCOc3cccc4c3C(=O)N(C3CCC(=O)NC3=O)C4=O)C(=O)C2)c(OC(C)C)c1 (stereo in doubt) [CL144]
Reply: 55.8
